Field: pIC50. Provide a value for each of the compounds that follow.
# experiment: Modulation of gamma secretase in CHO-2B7 cells assessed as reduction in amyloid beta 42 level after 5 hrs by MSD ELISA
# Type: cell-based
# measurement.parameters: Cricetulus griseus, CHO-2B7, 5 h
Give bare numbers, as −log10 of the molar value.

[[record]]
item_smiles = "CCO[C@@H]([C@H]1C[C@@H](C)[C@H]2[C@H](O1)[C@H](O)[C@@]1(C)[C@@H]3CC[C@H]4C(C)(C)[C@@H](OC(=O)N5CCN(C)CC5)CC[C@@]45C[C@@]35CC[C@]21C)C(C)(C)O"
result_value = 7.17

[[record]]
item_smiles = "CCO[C@@H]([C@H]1C[C@@H](C)[C@H]2[C@H](O1)[C@H](O)[C@@]1(C)[C@@H]3CC[C@H]4C(C)(C)[C@@H](O[C@H]5CN(CCN6CCOC6=O)CCO5)CC[C@@]45C[C@@]35CC[C@]21C)C(C)(C)O"
result_value = 6.82

[[record]]
item_smiles = "CC(C)[C@@H](OC(=O)N1CCC1)[C@H]1C[C@@H](C)[C@H]2[C@H](O1)[C@H](O)[C@@]1(C)[C@@H]3CC[C@H]4C(C)(C)[C@@H](O[C@H]5CNCCO5)CC[C@@]45C[C@@]35CC[C@]21C"
result_value = 6.59


// next item, pIC50 requested
Q: Which pIC50 is reported for this compound? "CCO[C@@H]([C@H]1C[C@@H](C)[C@H]2[C@H](O1)[C@H](O)[C@@]1(C)[C@@H]3CC[C@H]4C(C)(C)[C@@H](O[C@H]5CN(C(=O)C(C)C)CCO5)CC[C@@]45C[C@@]35CC[C@]21C)C(C)(C)O"
Ans: 6.77

====

# experiment: Ratio of drug uptake in brain to plasma in rat at 10 mg/kg, po at 6 hrs
# Format: ADME, organism-based
# Set-up: dose 10 mg/kg, route oral
# measurement.parameters: brain and plasma, read-out: BPR
endpoint.label: Kp at 6 h
Numbers only.

Q: // Kp at 6 h lookup, key: "C[C@@H]1C[C@H]([C@H](O)C(C)(C)O)O[C@H]2[C@H]1[C@@]1(C)CC[C@@]34C[C@@]35CC[C@H](O[C@H]3CN([C@H]6CCNC6=O)CCO3)C(C)(C)[C@@H]5CC[C@H]4[C@]1(C)[C@H]2O"
Ans: 0.09

====

# experiment: Metabolic stability in human liver microsomes assessed as compound remaining at 1 uM at 60 mins by LC/MS/MS analysis in presence of NADPH
# Assay type: ADME, Microsome
# measurement.parameters: read-out: Stability
endpoint.label: remaining at 1 h, 1 µM (%)
Answers are plain numbers, in %.

[[record]]
item_smiles = "CC(=O)O[C@@H]([C@H]1C[C@@H](C)[C@H]2[C@H](O1)[C@H](O)[C@@]1(C)[C@@H]3CC[C@H]4C(C)(C)[C@@H](O[C@H]5CNCCO5)CC[C@@]45C[C@@]35CC[C@]21C)C(C)(C)O"
endpoint_label = "remaining at 1 h, 1 µM"
result_units = "%"
result_value = 3

[[record]]
item_smiles = "C[C@@H]1C[C@H]([C@H](O)C(C)(C)O)O[C@H]2[C@H]1[C@@]1(C)CC[C@@]34C[C@@]35CC[C@H](O[C@H]3CNCCO3)C(C)(C)[C@@H]5CC[C@H]4[C@]1(C)[C@H]2O"
endpoint_label = "remaining at 1 h, 1 µM"
result_units = "%"
result_value = 40


Consider the record given below.
Q: Sample "CC(=O)O[C@@H]([C@H]1C[C@@H](C)[C@H]2[C@H](O1)[C@H](O)[C@@]1(C)[C@@H]3CC[C@H]4C(C)(C)[C@@H](O[C@H]5CN([C@H]6CCNC6=O)CCO5)CC[C@@]45C[C@@]35CC[C@]21C)C(C)(C)O" — what was its remaining at 1 h, 1 µM?
Ans: 63
